- Experimental target: T1, Akt1-S473E (H. sapiens, UniProt P31749 118-480 (human entry))
- T1 construct: Partially active Akt1 kinase domain expressed in Hi5 insect cells from pVLAKT.2; also called Akt-S473E; AktS473E
- T1 chain: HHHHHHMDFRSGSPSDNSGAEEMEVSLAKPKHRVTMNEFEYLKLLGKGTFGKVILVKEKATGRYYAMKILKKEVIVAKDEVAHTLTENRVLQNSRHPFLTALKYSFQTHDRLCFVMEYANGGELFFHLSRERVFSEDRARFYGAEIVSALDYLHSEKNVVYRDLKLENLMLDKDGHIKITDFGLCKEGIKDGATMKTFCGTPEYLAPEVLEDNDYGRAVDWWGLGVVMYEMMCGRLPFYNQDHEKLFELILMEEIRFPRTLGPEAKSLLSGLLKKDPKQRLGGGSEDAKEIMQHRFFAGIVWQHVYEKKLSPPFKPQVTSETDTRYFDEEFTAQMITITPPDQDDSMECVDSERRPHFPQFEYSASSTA
- Protocol notes: ELISA
Numbered stars: 1 amine (or outer) side, 2 acyl side, 3 side chain; on linkers, the order of the positions; unused ones are H or OH. Square brackets hold non-standard residues; d marks the D form. Primed or numbered codes have the meaning given here. Ends that are not written are not given here. Az8″ = 2-amino-10-azidodecanoic acid (azido amino acid), [N-]=[N+]=NCCCCCCCC[C@H](N[*:1])C(=O)[*:2]
Observable: pKd
Scale: negative log10 of molar concentration, which is what pKd denotes.

Data request: Give pKd for [Az8″]VFYRLGY-biotin (also called anchor peptide; biotinylated anchor peptide) [biotinylated anchor ligand Az8-VFYRLGY-Biotin]
Data returned: 4.60

Values compiled from patent US20250264471A1.
